Values from ChEMBL document CHEMBL5113403

# assayed system: Serine/threonine-protein kinase PLK4 (Homo sapiens)
# Sequence (O00444 whole entry): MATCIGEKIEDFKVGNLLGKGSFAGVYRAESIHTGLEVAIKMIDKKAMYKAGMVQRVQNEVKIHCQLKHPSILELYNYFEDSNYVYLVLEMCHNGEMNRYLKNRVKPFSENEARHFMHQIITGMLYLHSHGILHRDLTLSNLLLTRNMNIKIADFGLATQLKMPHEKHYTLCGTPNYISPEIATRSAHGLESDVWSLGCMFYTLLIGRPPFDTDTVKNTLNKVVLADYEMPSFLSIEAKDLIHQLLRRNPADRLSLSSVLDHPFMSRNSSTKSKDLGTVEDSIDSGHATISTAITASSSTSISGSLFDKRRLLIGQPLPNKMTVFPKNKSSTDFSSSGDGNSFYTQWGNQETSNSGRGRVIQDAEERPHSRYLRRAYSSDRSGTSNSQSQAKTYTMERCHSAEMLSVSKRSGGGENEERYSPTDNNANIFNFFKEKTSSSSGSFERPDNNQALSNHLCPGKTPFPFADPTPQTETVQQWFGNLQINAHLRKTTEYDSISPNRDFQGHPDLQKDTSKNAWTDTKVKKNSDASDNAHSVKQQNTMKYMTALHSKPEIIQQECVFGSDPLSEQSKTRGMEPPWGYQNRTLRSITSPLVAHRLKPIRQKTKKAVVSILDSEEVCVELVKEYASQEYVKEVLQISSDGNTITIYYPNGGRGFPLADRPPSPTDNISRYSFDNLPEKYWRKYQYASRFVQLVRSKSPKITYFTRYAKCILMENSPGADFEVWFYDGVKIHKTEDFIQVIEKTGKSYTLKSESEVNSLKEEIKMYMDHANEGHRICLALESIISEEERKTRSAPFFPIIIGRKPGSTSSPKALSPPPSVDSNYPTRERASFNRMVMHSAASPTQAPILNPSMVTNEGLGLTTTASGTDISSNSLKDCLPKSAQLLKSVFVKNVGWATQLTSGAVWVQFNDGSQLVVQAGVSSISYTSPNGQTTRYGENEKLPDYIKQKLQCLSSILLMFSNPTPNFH
# test details: Inhibition of recombinant human PLK4 incubated for 60 mins by Lanthascreen Eu kinase binding assay
pIC50: −log10 of the molar value.
Values of pIC50 greater than or equal to 8 map to y; values below map to n.

Use the examples below as a reference point.
structure as smiles	assayed system	discrete label
Cc1cc(Nc2nc(NCc3ccc(Cl)cc3)nc3c2cnn3C2CCCCC2)n[nH]1	Serine/threonine-protein kinase PLK4 (Homo sapiens)	n
Fc1ccc(CNc2nc(Nc3cc(-c4ccccc4)[nH]n3)c3cnn(C4CCOCC4)c3n2)c(F)c1	Serine/threonine-protein kinase PLK4 (Homo sapiens)	n
Cc1cc(Nc2nc(NCc3c(F)cc(F)cc3F)nc3[nH]ncc23)n[nH]1	Serine/threonine-protein kinase PLK4 (Homo sapiens)	n
Cc1cc(Nc2nc(NCc3ccc(Cl)cc3)nc3c2cnn3C2CCOCC2)n[nH]1	Serine/threonine-protein kinase PLK4 (Homo sapiens)	y
CCc1cc(Nc2nc(NCc3ccc(F)cc3F)nc3c2cnn3C2CCOCC2)n[nH]1	Serine/threonine-protein kinase PLK4 (Homo sapiens)	y

Could you tell me if the measured pIC50 of `Cc1cc(Nc2nc(NCc3ccccc3Cl)nc3[nH]ncc23)n[nH]1` reaches 8 or more?
y

Does the reported pIC50 for `Cc1cc(Nc2nc(NCc3ccc(Cl)cc3)nc3c2cnn3CC(F)(F)F)n[nH]1` fall at or above the 8 mark?
n

Determine whether measured pIC50 meets or exceeds 8 for `Cc1cc(Nc2nc(NCc3ccc(Cl)cc3)nc3c2cnn3C(C)C)n[nH]1`
y

Assess whether reported pIC50 for `Cc1cc(Nc2nc(NCc3ccc(F)c(F)c3)nc3[nH]ncc23)n[nH]1` sits at 8 or higher.
n

Determine whether this molecule has pIC50 no lower than 8: `Cc1cc(Nc2nc(NCc3cccc(Br)c3)nc3[nH]ncc23)n[nH]1`
n

Reported pIC50 at or above 8? `Cc1cc(Nc2nc(NCc3ccc(F)cc3F)nc3c2cnn3C)n[nH]1`
n

Check if pIC50 >= 8 (inclusive). Item: `Cc1cc(Nc2nc(NCc3cccc(Cl)c3)nc3[nH]ncc23)n[nH]1`
y

Kindly determine if pIC50 recorded for `Cc1cc(Nc2nc(NCc3ccc(F)cc3F)nc3[nH]ncc23)n[nH]1` is above or exactly 8.
y

Given the entry `Fc1ccc(CNc2nc(Nc3n[nH]c4ccccc34)c3cnn(C4CCOCC4)c3n2)c(F)c1` , answer whether its pIC50 meets or surpasses 8.
n
